- SYSTEM_TESTED: HIV-1 Env of strain CAP210.2.00.E8 (HIV-1)
- TEST_NAME: cell-based or functional assay
Each entry below lists one item and its recorded neutralization IC50 value.

Illustrative cases are given below, each with its answer.
1. NIH45-46^G54Y IgG (antibody, name in Kabat numbering, V domains shown) VH: QVRLSQSGGQMKKPGESMRLSCRASGYEFLNCPINWIRLAPGRRPEWMGWLKPRYGAVNYARKFQGRVTMTRDVYSDTAFLELRSLTSDDTAVYFCTRGKYCTARDYYNWDFEHWGRGAPVTVSS VL: EIVLTQSPATLSLSPGETAIISCRTSQSGSLAWYQQRPGQAPRLVIYSGSTRAAGIPDRFSGSRWGADYNLSISNLESGDFGVYYCQQYEFFGQGTKVQVDI	> 50 µg/mL
2. NIH45-46 G54I IgG (antibody, name in Kabat numbering, V domains shown) VH: QVRLSQSGGQMKKPGESMRLSCRASGYEFLNCPINWIRLAPGRRPEWMGWLKPRIGAVNYARKFQGRVTMTRDVYSDTAFLELRSLTSDDTAVYFCTRGKYCTARDYYNWDFEHWGRGAPVTVSS VL: EIVLTQSPATLSLSPGETAIISCRTSQSGSLAWYQQRPGQAPRLVIYSGSTRAAGIPDRFSGSRWGADYNLSISNLESGDFGVYYCQQYEFFGQGTKVQVDI	> 50 µg/mL
3. NIH45-46^G54W IgG (antibody, name in Kabat numbering, V domains shown) VH: QVRLSQSGGQMKKPGESMRLSCRASGYEFLNCPINWIRLAPGRRPEWMGWLKPRWGAVNYARKFQGRVTMTRDVYSDTAFLELRSLTSDDTAVYFCTRGKYCTARDYYNWDFEHWGRGAPVTVSS VL: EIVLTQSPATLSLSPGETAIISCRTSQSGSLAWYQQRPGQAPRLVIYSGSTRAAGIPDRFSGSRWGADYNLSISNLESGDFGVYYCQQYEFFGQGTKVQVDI	41 µg/mL
4. NIH45-46 G54H IgG (antibody, name in Kabat numbering, V domains shown) VH: QVRLSQSGGQMKKPGESMRLSCRASGYEFLNCPINWIRLAPGRRPEWMGWLKPRHGAVNYARKFQGRVTMTRDVYSDTAFLELRSLTSDDTAVYFCTRGKYCTARDYYNWDFEHWGRGAPVTVSS VL: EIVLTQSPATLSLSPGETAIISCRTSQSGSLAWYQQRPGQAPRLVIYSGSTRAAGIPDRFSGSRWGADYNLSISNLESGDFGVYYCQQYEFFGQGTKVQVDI	> 50 µg/mL
5. NIH45-46^G54F IgG (antibody, name in Kabat numbering, V domains shown) VH: QVRLSQSGGQMKKPGESMRLSCRASGYEFLNCPINWIRLAPGRRPEWMGWLKPRFGAVNYARKFQGRVTMTRDVYSDTAFLELRSLTSDDTAVYFCTRGKYCTARDYYNWDFEHWGRGAPVTVSS VL: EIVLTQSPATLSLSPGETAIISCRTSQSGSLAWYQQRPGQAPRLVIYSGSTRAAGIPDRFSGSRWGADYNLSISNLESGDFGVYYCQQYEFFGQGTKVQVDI	> 50 µg/mL
6. NIH45-46 G54L IgG (antibody, name in Kabat numbering, V domains shown) VH: QVRLSQSGGQMKKPGESMRLSCRASGYEFLNCPINWIRLAPGRRPEWMGWLKPRLGAVNYARKFQGRVTMTRDVYSDTAFLELRSLTSDDTAVYFCTRGKYCTARDYYNWDFEHWGRGAPVTVSS VL: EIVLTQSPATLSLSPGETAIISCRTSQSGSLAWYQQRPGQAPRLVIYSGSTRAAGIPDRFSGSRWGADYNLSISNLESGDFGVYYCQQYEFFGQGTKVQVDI	> 50 µg/mL

Here is another binder to look at.
Ask: Looking for the measured neutralization IC50 of NIH45-46 G54M IgG (antibody, name in Kabat numbering, V domains shown) VH: QVRLSQSGGQMKKPGESMRLSCRASGYEFLNCPINWIRLAPGRRPEWMGWLKPRMGAVNYARKFQGRVTMTRDVYSDTAFLELRSLTSDDTAVYFCTRGKYCTARDYYNWDFEHWGRGAPVTVSS VL: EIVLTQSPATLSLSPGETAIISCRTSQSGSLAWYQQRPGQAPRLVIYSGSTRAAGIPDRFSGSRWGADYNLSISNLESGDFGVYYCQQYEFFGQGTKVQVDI , can you help?
Reply: > 50 µg/mL
